# Tested on: rat peritoneal mast cells
# experimentNotes: In vitro histamine induction in rat peritoneal mast cells
# Type: cell-based
Square brackets hold non-standard residues; d marks the D form. Peptide text beside a SMILES is read from it. dNle = CCCC[C@@H](N)C(=O)O
readoutType: Histamine in vitro Fold change of non-treated at 10 uM (fold)
Kindly provide the numeric value in fold only, without the unit symbol.

Example entries begin here.
compound	readoutNumber
CCCC[C@@H](NC(=O)[C@@H](CCCNC(=N)N)NC(=O)[C@@H](CCCNC(=N)N)NC(=O)[C@@H](CCCNC(=N)N)NC(=O)[C@@H](CCCC)NC(=O)[C@@H](CS)NC(C)=O)C(=O)N[C@H](CCCNC(=N)N)C(N)=O [SEQ ID NO: 130, Ac-c-dNle-rrr-dNle-r-NH2] (Ac-[dC][dNle][dR][dR][dR][dNle][dR]-NH2)	9.2
CC(=O)N[C@H](CS)C(=O)N[C@H](CCCNC(=N)N)C(=O)N[C@H](C)C(=O)N[C@H](CCCNC(=N)N)C(=O)N[C@H](CCCNC(=N)N)C(=O)N[C@H](CCCNC(=N)N)C(=O)N[C@H](CCCNC(=N)N)C(N)=O [SEQ ID NO: 9, Ac-crarrrr-NH2] (Ac-[dC][dR][dA][dR][dR][dR][dR]-NH2)	6.8

Field: next compound
Entry CC(=O)N[C@H](CS)C(=O)N[C@H](C)C(=O)N[C@H](CCCNC(=N)N)C(=O)N[C@H](CCCNC(=N)N)C(=O)N[C@H](CCCNC(=N)N)C(=O)N[C@H](CCCNC(=N)N)C(=O)N[C@H](CCCNC(=N)N)C(N)=O [SEQ ID NO: 8, Ac-carrrrr-NH2] (Ac-[dC][dA][dR][dR][dR][dR][dR]-NH2) ; Histamine in vitro Fold change of non-treated at 10 uM = 6.6

---

# targetEntity: human calcium-sensing receptor (CaSR) (Homo sapiens)
# Construct: expressed in transfected cells; host or cells: HEK 293T cells, transiently transfected (lipofectamine 2000); in some cases HEK293 cells stably transfected
# Sequence (P41180 20-1078): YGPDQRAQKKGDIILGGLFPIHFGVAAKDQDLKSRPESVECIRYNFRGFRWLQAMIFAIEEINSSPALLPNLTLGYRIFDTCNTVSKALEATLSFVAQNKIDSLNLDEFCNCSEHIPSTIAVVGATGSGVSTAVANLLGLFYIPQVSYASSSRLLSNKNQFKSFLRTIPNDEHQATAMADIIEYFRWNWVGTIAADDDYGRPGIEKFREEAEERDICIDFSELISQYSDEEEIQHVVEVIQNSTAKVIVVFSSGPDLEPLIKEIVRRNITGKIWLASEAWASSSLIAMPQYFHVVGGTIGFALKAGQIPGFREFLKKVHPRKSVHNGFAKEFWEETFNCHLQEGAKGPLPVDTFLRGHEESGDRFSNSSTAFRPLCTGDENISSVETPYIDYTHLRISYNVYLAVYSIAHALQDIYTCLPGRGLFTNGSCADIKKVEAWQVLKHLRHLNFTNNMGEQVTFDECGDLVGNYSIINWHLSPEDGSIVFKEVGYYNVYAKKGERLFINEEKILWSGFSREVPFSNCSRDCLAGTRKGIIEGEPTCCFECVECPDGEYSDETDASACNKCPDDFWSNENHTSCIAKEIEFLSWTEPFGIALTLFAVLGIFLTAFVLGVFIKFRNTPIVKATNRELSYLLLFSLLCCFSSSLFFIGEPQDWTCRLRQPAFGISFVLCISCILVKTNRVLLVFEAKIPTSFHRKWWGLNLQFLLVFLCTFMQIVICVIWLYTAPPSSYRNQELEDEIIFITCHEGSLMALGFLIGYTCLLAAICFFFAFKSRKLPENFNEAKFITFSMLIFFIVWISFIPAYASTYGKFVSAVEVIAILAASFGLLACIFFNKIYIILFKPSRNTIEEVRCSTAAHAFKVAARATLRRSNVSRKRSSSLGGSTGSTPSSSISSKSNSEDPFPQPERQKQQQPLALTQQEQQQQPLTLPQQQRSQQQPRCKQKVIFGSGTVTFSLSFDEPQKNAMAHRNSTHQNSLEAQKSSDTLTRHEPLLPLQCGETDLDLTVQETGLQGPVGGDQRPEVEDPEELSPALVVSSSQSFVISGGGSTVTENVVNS
# experimentNotes: In vitro cell assay in HEK-293 expressing the human calcium-sensing receptor (IP1 production)
# Assay type: cell-based
# protocolConditions: Table 5; IP1 production in HEK293 cells expressing human CaSR, eight concentrations in duplicate; read-out: EC50 in CaSR in vitro assay
pEC50: −log10 of the molar value. Square brackets hold non-standard residues; d marks the D form. Peptide text beside a SMILES is read from it.
Where pEC50 equals or exceeds 5, the correct label is 1; where it does not, the label is 0.

Prompt: Hi team, for CC(=O)N[C@H](CS)C(=O)N[C@H](CCCNC(=N)N)C(=O)N[C@H](CCCNC(=N)N)C(=O)N[C@H](CCCNC(=N)N)C(=O)N[C@H](CCCNC(=N)N)C(=O)N[C@H](CCCNC(=N)N)C(N)=O [SEQ ID NO: 5, Ac-crrrrr-NH2] (Ac-[dC][dR][dR][dR][dR][dR]-NH2) , is the recorded pEC50 at or above 5?
Completion: 1
